# method.description: Toxicity liver stage against HepG2, at 10uM
# Format: cell-based
# Parameters: test concentration 10 uM, cell line HepG2-A16-CD81EGFP
# run.conditions: human, HepG2-A16-CD81EGFP cells; read-out: INHIBITION
measurement.kind: cytotoxicity at 10 µM
Respond with a number, then the unit of measure.

Memo: `CNS(=O)(=O)CC(=O)N(Cc1ccccc1)c1ccc(C)cc1` , reported cytotoxicity at 10 µM: 2.53%

# cytotoxicity at 10 µM (compound: O=C(c1cnccn1)N1CCCC(Cn2cc(C3CCCC3)nn2)C1 (centres undefined) ) is -4.86%

According to the records, this compound COc1cccc(CC(=O)N2CCCC(c3nncn3C)C2)c1 (centres undefined) displays cytotoxicity at 10 µM of -20.2%

Record summary for `Cc1ccc(F)cc1C(=O)NCc1ccc(C(=O)O)o1` : reported cytotoxicity at 10 µM = -10.1%

Reported cytotoxicity at 10 µM for `O=S(=O)(CCN1CCc2c(ncn2C2CC2)C1)c1ccccc1` was -14.5%

# cytotoxicity at 10 µM of `CCNC(=O)N1C[C@@H]2OCC(=O)N(CC3CC3)[C@@H]2C1` = 0.434%

For reference, reported cytotoxicity at 10 µM for Cc1cnn(CC2CCCN2C(=O)c2cccnc2-n2cncn2)c1 (centres undefined) stands at -3.29%

Summary for this compound, N#Cc1cccc(OCCN2CCCC2C(=O)Nc2nccs2)c1 (centres undefined) : cytotoxicity at 10 µM is 2.94%

Entry c1nc(N2CCCC2Cn2cncn2)c2sccc2n1 (centres undefined) — recorded cytotoxicity at 10 µM = -9.19%

Looking up OC1(CN2CCCCC2)CCN(c2ccc(C(F)(F)F)cn2)C1 (centres undefined) , I see its cytotoxicity at 10 µM listed as -11%

# compound Fc1cnc(N2CCCC3(COCCN(c4nccs4)C3)C2)nc1 (centres undefined) ; its cytotoxicity at 10 µM = 1.43%

// cytotoxicity at 10 µM lookup, compound = `COC(=O)c1ccc(F)c(S(=O)(=O)Nc2ccc(C(N)=O)cc2)c1` , result: 3.63%

The compound listed as `Cc1nc(COC[C@@H]2CC[C@H]3[C@H](CCN3S(C)(=O)=O)O2)cs1` shows cytotoxicity at 10 µM equal to 5.22%

cytotoxicity at 10 µM recorded for this compound, `O=C(NCCNc1ncccn1)N1CCSCC1` , is -8.26%

The recorded cytotoxicity at 10 µM for CCNC(=O)c1ccc(NC2CCOC3(CCCCC3)C2)nn1 (centres undefined) is -3%

Recorded result, CCN(CC)CCc1nc2c([nH]1)CC(c1ccc(Cl)cc1)CNC2=O (centres undefined) , cytotoxicity at 10 µM: -58.9%

The measured cytotoxicity at 10 µM associated with `CN(CCc1cn[nH]c1)Cc1nc(Cc2cccc(C(F)(F)F)c2)no1` reads 0.361%

cytotoxicity at 10 µM recorded for this compound, `COCCn1ccc(=O)c(OCC(=O)Nc2cccc(C(C)=O)c2)c1C` , is 4.31%

Please fill in: cytotoxicity at 10 µM reported for CC(C)(C)OC(=O)N1CCC(C(=O)NC2CCS(=O)(=O)C2)CC1 (centres undefined) = -6.81%

So for CCn1c(C)nnc1CN(C)C1CCN(Cc2nnc(C3CC3)o2)C1 (centres undefined) , the logged cytotoxicity at 10 µM turned out to be -11.6%

Record `CCCc1cc(C(=O)N(Cc2cccnc2)Cc2cccnc2)[nH]n1` . Reported cytotoxicity at 10 µM: -5.79%

Given item Cc1nc(C)n(CC2CN(c3ccc(C#N)cn3)CCO2)n1 (centres undefined) , the value recorded as its cytotoxicity at 10 µM is -10.5%

Value of cytotoxicity at 10 µM reported for the compound `O=C(NCCc1ccccn1)c1[nH]nc2c1CCCC2` is 8.41%

Measured cytotoxicity at 10 µM, CSCC(C)(O)CNC(=O)c1cc(Cl)ccc1Cl (centres undefined) : 9.88%
